- System: Mitogen-activated protein kinase kinase kinase 2 (Homo sapiens)
- Protocol details: wildtype MEKK2 PB1-MEK5 interaction, increase or decrease – biochemical, multiplex bead flow cytometry, Alexa488-MEK5, primary screen (AID 1531)
- Particulars: Alexa488-MEK5 binding to MEKK2 WT, at 10 µM, actives lie on both sides
In all, about 290,000 compounds went through this assay and about 3,300 (1.1%) were called active. Cut-off read from the data, not from the text of the source: active = binding response below about 67% or above about 130%; inconclusive = no clear call, values can overlap the other calls; inactive = in between. The full list was thinned out, with actives kept by preference.
Labels: true (1) (active), false (0) (inactive)

INSERT INTO assay_data (compound, system, qualitative_label) VALUES
  ('Cc1ccc2c(c1)=C/C(=C\c1c(O)[nH]c(=O)[nH]c1=O)C(=O)N=2', 'Mitogen-activated protein kinase kinase kinase 2 (Homo sapiens)', 'false (0)'),
  ('O=C1NC(=O)N(CCc2ccc(F)cc2)C(=O)/C1=C/C=C/c1ccccc1', 'Mitogen-activated protein kinase kinase kinase 2 (Homo sapiens)', 'false (0)'),
  ('COC(=O)C1=C(c2cc3ccccc3o2)C[C@@H]2CC[C@H]1N2C(=O)NC1CCCCC1', 'Mitogen-activated protein kinase kinase kinase 2 (Homo sapiens)', 'false (0)'),
  ('O=C1NC(=O)N(Cc2ccco2)C(=O)/C1=C\c1cccn1CCOc1ccccc1', 'Mitogen-activated protein kinase kinase kinase 2 (Homo sapiens)', 'false (0)'),
  ('O=C(O)COc1ccccc1/C=C1\C(=O)NC(=O)N(CCC2=CCCCC2)C1=O', 'Mitogen-activated protein kinase kinase kinase 2 (Homo sapiens)', 'true (1)'),
  ('COc1ccc(-n2c(O)c(C(C)=Nc3ccc4c(c3)CCC4)c(=O)[nH]c2=O)cc1', 'Mitogen-activated protein kinase kinase kinase 2 (Homo sapiens)', 'false (0)'),
  ('COC(=O)C1=C(c2cc3ccccc3s2)C[C@@H]2CC[C@H]1N2C(=O)NCc1cccc2ccccc12', 'Mitogen-activated protein kinase kinase kinase 2 (Homo sapiens)', 'false (0)'),
  ('N#Cc1ccc(Cn2cc(C(=O)c3ccco3)c3ccccc32)cc1', 'Mitogen-activated protein kinase kinase kinase 2 (Homo sapiens)', 'false (0)'),
  ('c1ccc(CC2CCCCN2)cc1 (centres undefined)', 'Mitogen-activated protein kinase kinase kinase 2 (Homo sapiens)', 'false (0)');
